# System: OVCAR-4 ovarian
# assay: NCI tumour cell line growth inhibition, 48 h; in the data active means GI50 below about 0.43 µM; inactive means the rest
Outcome codes: true (active), false (inactive)

- compound: "O=[N+]([O-])c1cc(S(=O)(=O)Oc2ccccc2)ccc1Cl"
  class: "false"
- compound: "COc1ccc2cc(-c3c(-c4ccncc4)nc(-c4ccc(S(C)=O)cc4)n3C)ccc2c1 (centres undefined)"
  class: "false"
- compound: "CCN1C(=O)N(CC)C2C1NN=c1s/c(=C\\c3ccccc3Br)c(=O)n12 (centres undefined)"
  class: "true"
- compound: "Nc1ccc(-c2nc3ccccc3[nH]2)c2ccccc12"
  class: "false"
- compound: "Cc1nc2ccccc2c(/C=C/c2ccc(Br)cc2)c1C(=O)/C=C/c1ccccc1"
  class: "false"
- compound: "COc1ccc(C(=O)N2c3ccccc3Sc3ccccc32)c(OC)c1"
  class: "false"
- compound: "CN1CCN(CC(O)COc2c(Br)c(Br)c(Br)c3c2OC(C)(C)C3)CC1 (centres undefined)"
  class: "false"
- compound: "CCCCn1c(=O)c2c(nc3n2CCCN3CCc2ccc(OCC(=O)NCCN(CC)CC)cc2)n(CCCC)c1=O"
  class: "false"
- compound: "Cc1cccc(NC(=O)c2sc3nc4c(cc3c2N)CN(Cc2ccccc2)CC4)c1C"
  class: "false"
- compound: "CCN(CCO)CC(C)Nc1ccc([N+](=O)[O-])c2sc3ccccc3c(=O)c12 (centres undefined)"
  class: "false"
- compound: "CC(C)=CCC/C(C)=C/CC/C(C)=C/CC/C=C(\\C)CC/C=C(\\C)CCC(=O)Nc1ccn(C2OC(CO)C(O)C2(F)F)c(=O)n1 (centres undefined)"
  class: "false"
- compound: "CCCCCn1sc(=O)n(Cc2ccc(CNC(=O)OCc3ccc4cccc(O)c4n3)cc2)c1=O"
  class: "false"
- compound: "N#Cc1ccc(N=Cc2c([O-])ccc3ccccc23)cc1.[C-]#[O+].[C-]#[O+].[Ir]"
  class: "false"
- compound: "COc1ccc2c(c1)OC1=C(C(=O)OC1)C2c1cc(OC)c2c(c1)OCO2 (centres undefined)"
  class: "true"

----------
The reader will find reported TGI values listed item by item below.
# Test system: MALME-3M melanoma
# assay: NCI tumour cell line growth inhibition, 48 h

- molecule: "CC1(C)OC2C(=O)C=C(COCc3ccccc3)C2O1 (centres undefined)"
  tested target: "MALME-3M melanoma"
  TGI: "45 µM"
- molecule: "N/N=C1\\CC(=O)NC(=O)N1"
  tested target: "MALME-3M melanoma"
  TGI: "> 100 µM"
- molecule: "OC1(c2ccccc2)CSC2=Nc3ccccc3C3CCN1N23 (centres undefined)"
  tested target: "MALME-3M melanoma"
  TGI: "81.7 µM"
- molecule: "CC1(O)OC(=O)C2=C1CCC1C2CCC2(C)C(O)CCC12 (centres undefined)"
  tested target: "MALME-3M melanoma"
  TGI: "> 100 µM"
- molecule: "CCN1C(=O)N(CC)C2C1NN=c1s/c(=C3\\C(=O)N(CCc4ccccc4)c4ccccc43)c(=O)n12 (centres undefined)"
  tested target: "MALME-3M melanoma"
  TGI: "20 µM"
- molecule: "Nc1ccc(C(=O)NN2C(=O)C(Cl)C2c2ccccc2)cc1 (centres undefined)"
  tested target: "MALME-3M melanoma"
  TGI: "> 100 µM"
- molecule: "COc1ccc(OC)c(C2SCC(=O)N2NC(=O)C(O)c2ccccc2)c1 (centres undefined)"
  tested target: "MALME-3M melanoma"
  TGI: "> 100 µM"
- molecule: "CC1OC(OC2C(OC(=O)[C@@H]3CC(C)(C)C[C@H]4C5=CC[C@@H]6[C@@]7(C)C[C@H](O)[C@H](OC8OC(CO)C(O)C(O)C8O)[C@@](C)(CO)[C@@H]7[C@H](O)C[C@@]6(C)[C@]5(C)CC[C@@]34C)OCC(O)C2O)C(O)C(O)C1O (some centres undefined)"
  tested target: "MALME-3M melanoma"
  TGI: "> 7.5 µM"
- molecule: "O=C(NC1CCCC1=O)c1ccccc1 (centres undefined)"
  tested target: "MALME-3M melanoma"
  TGI: "> 100 µM"
